The measured values listed here are drawn from ChEMBL document CHEMBL1201862.

tested on: UACC-62; assay: NCI tumour cell line growth inhibition, 48 h
Active and inactive are the calls of the source. Rule as the data show it: active = GI50 up to about 1.1 µM and inactive = higher.
Permitted responses: active, inactive

In [3]: df
Out[3]:
                                   molecule  discrete_label
0         O=c1[nH]nc(Cc2ccccc2)n1N=C1CCCCC1        inactive
1  CCc1nc(N)nc(N)c1-c1ccc(Cc2ccccc2)c([N+](=O)[O-])c1          active
2  Cc1cc(C)c(OC(=O)Nc2cccc3ccccc23)c(-c2ccccc2)c1        inactive

Input: Kindly provide the recorded test outcome for the following molecule: COc1cc2c(oc(=O)c3cc4cc([Si](C)(C)C)oc4c(OC)c32)c2cccc(O)c12
Output: inactive

Input: Kindly provide the recorded test outcome for the following molecule: O=C(O)OC12CCCCCC1C(=O)C1CCCCC12 (configuration not stated)
Output: inactive

Input: Kindly provide the recorded test outcome for the following molecule: Cc1cc(Cl)ccc1N1C(=O)C(=O)C(c2nc3ccccc3s2)/C(=N\NC(=O)c2ccccc2O)C1=O (configuration not stated)
Output: inactive

Input: Kindly provide the recorded test outcome for the following molecule: CN(C)c1cccc(-c2cc(=S)c3cc4c(cc3[nH]2)OCO4)c1
Output: inactive

Input: Kindly provide the recorded test outcome for the following molecule: COc1ccc(C(=O)O)c(Br)c1OCc1ccccc1
Output: inactive
